# System: HCV replicon cells Huh 9B
# Assay Explanation: HCV replicon assay (luciferase)
# Format: cell-based
# Test Parameters: Hepatitis C virus, reduction of replicon level by 50% vs untreated cell control, 72 h
Reported log10 of IC50 values are given for each entry in this list.
Remember, log10 of IC50, in nM.

(Q) Need log10 of IC50 of COCCOc1ccc(F)cc1C(=O)NC1N=C(c2c(Cl)cc(Cl)cc2Cl)c2ccccc2NC1=O (stereo not drawn) , thanks.
(A) 1.59

(Q) Need log10 of IC50 of COCCOc1ccc(F)cc1C(=O)N[C@H]1N=C(c2c(Cl)cc(Cl)cc2Cl)c2ccccc2NC1=O , thanks.
(A) 1.22

(Q) Need log10 of IC50 of CN(C)CCCOc1ccc(Cl)cc1C(=O)NC1N=C(c2c(Cl)cc(Cl)cc2Cl)c2ccccc2NC1=O (stereo not drawn) , thanks.
(A) 3.74

(Q) Need log10 of IC50 of COCCOc1ncc(F)cc1C(=O)NC1N=C(c2c(Cl)cc(Cl)cc2CN2CCOCC2)c2ccccc2NC1=O (stereo not drawn) , thanks.
(A) 2.11

(Q) Need log10 of IC50 of CCOCCOc1ncc(F)cc1C(=O)NC1N=C(c2c(Cl)cc(Cl)cc2OCC)c2ccccc2NC1=O (stereo not drawn) , thanks.
(A) 1.00

----------
# Tested on: HCV replicon cells Huh 9B
# Assay type: cell-based
# Test Parameters: concentration reducing total cell area by 50% relative to DMSO controls; 72 h
Reported Replicon Assay Value TD50 values are given for each entry in this list.
All answers are understood in µM, so give the number only.

Below: 5 compounds and their reported Replicon Assay Value TD50.
| Compound | Replicon Assay Value TD50, µM |
| --- | --- |
| CS(=O)(=O)CCOc1ccc(Cl)cc1C(=O)NC1N=C(c2c(Cl)cc(Cl)cc2Cl)c2ccccc2NC1=O (stereo not drawn) [Example 29] | 15.249 |
| COCCOc1ccc(F)cc1C(=O)NC1N=C(c2c(Cl)cc(Cl)cc2Cl)c2ccccc2NC1=O (stereo not drawn) [Example 16] | 22.094 |
| CCOc1cc(Cl)cc(Cl)c1C1=NC(NC(=O)c2cc(F)cnc2OCCOC)C(=O)Nc2ccccc21 (stereo not drawn) [Example 57] | 22.698 |
| COCCN(C)c1ncc(F)cc1C(=O)NC1N=C(c2c(Cl)cc(Cl)cc2Cl)c2ccccc2NC1=O (stereo not drawn) [Example 41] | 24.146 |
| CCOCCOc1ncc(F)cc1C(=O)NC1N=C(c2c(Cl)cc(Cl)cc2OC)c2ccccc2NC1=O (stereo not drawn) [Example 55] | 18.821 |

From here, focus on the item given below.
(Q) Need Replicon Assay Value TD50 of COCCOc1ncc(F)cc1C(=O)NC1N=C(c2c(Cl)cc(Cl)cc2CN2CCOCC2)c2ccccc2NC1=O (stereo not drawn) [Example 52] , thanks.
(A) 24.829

----------
# Study System: Recombinant HCV polymerase (BK strain) (Hepatitis C virus genotype 1b)
# Construct: Recombinant HCV polymerase (BK strain) was expressed and purified from E. coli with a 21 amino acid C-terminal deletion; His6
# Assay Explanation: HCV polymerase enzyme assay (radiometric [33P]-UTP incorporation)
Reported pIC50 values are given for each entry in this list.
To interpret pIC50, take it as minus log10 of a concentration measured in moles per litre.

Below: 3 molecules and their reported pIC50.
| Molecule | Study System | pIC50 |
| --- | --- | --- |
| COCCOc1ncc(F)cc1C(=O)NC1N=C(c2c(Cl)cc(Cl)cc2CN2CCOCC2)c2ccccc2NC1=O (stereo not shown) | Recombinant HCV polymerase (BK strain) (Hepatitis C virus genotype 1b) | 6.22 |
| COCCOc1ncc(Cl)cc1C(=O)NC1N=C(c2c(Cl)cc(Cl)cc2Cl)c2ccccc2NC1=O (stereo not shown) | Recombinant HCV polymerase (BK strain) (Hepatitis C virus genotype 1b) | 6.75 |
| COCCOc1ncc(Cl)cc1C(=O)NC1N=C(c2c(Cl)cc(Cl)cc2CN2CCOCC2)c2ccccc2NC1=O (stereo not shown) | Recombinant HCV polymerase (BK strain) (Hepatitis C virus genotype 1b) | 5.91 |

(Q) Need pIC50 of CO[C@@H](C)COc1ccc(Cl)cc1C(=O)NC1N=C(c2c(Cl)cc(Cl)cc2Cl)c2ccccc2NC1=O (stereo partly shown) , thanks.
(A) 6.78

----------
# Tested on: HCV replicon cells Huh 9B
# Assay type: cell-based
# Test Parameters: concentration reducing total cell area by 50% relative to DMSO controls; 72 h
Reported Replicon Assay Value TD50 values are given for each entry in this list.

Below: 3 compounds and their reported Replicon Assay Value TD50.
| Compound | Assay Readout | Recorded Result |
| --- | --- | --- |
| CCOCCOc1ncc(F)cc1C(=O)NC1N=C(c2c(Cl)cc(Cl)cc2OCC)c2ccccc2NC1=O (stereo not shown) [Example 58] | Replicon Assay Value TD50 | 11.875 µM |
| COCCOc1ccc(F)cc1C(=O)NC1N=C(c2c(Cl)cccc2Cl)c2ccccc2NC1=O (stereo not shown) [Example 48] | Replicon Assay Value TD50 | >25 µM |
| COCCOc1ncc(Cl)cc1C(=O)NC1N=C(c2c(Cl)cc(Cl)cc2CN2CCOCC2)c2ccccc2NC1=O (stereo not shown) [Example 51] | Replicon Assay Value TD50 | >25 µM |

From here, focus on the item given below.
(Q) Need Replicon Assay Value TD50 of COCCOc1ccc(Br)cc1C(=O)NC1N=C(c2c(Cl)cc(Cl)cc2Cl)c2ccccc2NC1=O (stereo not shown) [Example 20] , thanks.
(A) >25 µM

----------
# Study System: Recombinant HCV polymerase (BK strain) (Hepatitis C virus genotype 1b, UniProt P26663)
# Construct: Recombinant HCV polymerase (BK strain) was expressed and purified from E. coli with a 21 amino acid C-terminal deletion; His6
# Sequence (P26663 2420-2989): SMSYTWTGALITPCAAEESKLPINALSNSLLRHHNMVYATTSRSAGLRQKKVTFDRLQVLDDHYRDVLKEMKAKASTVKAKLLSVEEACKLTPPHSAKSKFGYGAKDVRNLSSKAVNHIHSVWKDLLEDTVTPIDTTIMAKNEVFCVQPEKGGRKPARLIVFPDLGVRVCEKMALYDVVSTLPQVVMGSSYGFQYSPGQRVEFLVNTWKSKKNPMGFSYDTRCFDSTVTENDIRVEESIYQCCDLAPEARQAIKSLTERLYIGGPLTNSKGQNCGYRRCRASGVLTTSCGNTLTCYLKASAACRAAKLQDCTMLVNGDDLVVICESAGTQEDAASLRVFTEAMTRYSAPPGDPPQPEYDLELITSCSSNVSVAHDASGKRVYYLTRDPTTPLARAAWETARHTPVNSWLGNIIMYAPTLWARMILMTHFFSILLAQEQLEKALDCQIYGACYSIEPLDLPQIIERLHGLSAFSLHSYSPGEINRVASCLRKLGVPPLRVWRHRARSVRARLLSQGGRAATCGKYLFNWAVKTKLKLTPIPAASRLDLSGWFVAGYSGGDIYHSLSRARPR
# Assay Explanation: HCV polymerase enzyme assay (radiometric [33P]-UTP incorporation)
pIC50: −log10 of the molar value.
Param threshold (6) applies to pIC50; output Condition met when value >= threshold, Condition not met when value < threshold.

Worked examples follow.
| Compound | Category |
| --- | --- |
| CCOc1cc(Cl)cc(Cl)c1C1=N[C@H](NC(=O)c2cc(F)ccc2OCCOC)C(=O)Nc2ccccc21 [Example 69] | Condition met |
| CCOCCOc1ncc(F)cc1C(=O)N[C@@H]1N=C(c2c(Cl)cc(Cl)cc2Cl)c2ccccc2NC1=O [Example 66] | Condition not met |
| COCCOc1ccc(C)cc1C(=O)NC1N=C(c2c(Cl)cc(Cl)cc2Cl)c2ccccc2NC1=O (stereo not shown) [Example 17] | Condition met |
| COCCOc1ccc(F)cc1C(=O)N[C@@H]1N=C(c2c(Cl)cc(Cl)cc2Cl)c2ccccc2NC1=O [Example 62] | Condition not met |
| COCCOc1ccc(F)cc1C(=O)N[C@H]1N=C(c2c(Cl)cc(Cl)cc2Cl)c2ccccc2NC1=O [Example 61] | Condition met |
| COCCOc1ccc(Cl)cc1C(=O)N[C@@H]1N=C(c2c(Cl)cc(Cl)cc2Cl)c2ccccc2NC1=O [Example 60] | Condition not met |

Shift focus to the following entry.
(Q) Given the entry COCCCOc1ncc(F)cc1C(=O)NC1N=C(c2c(Cl)cc(Cl)cc2Cl)c2ccccc2NC1=O (stereo not shown) [Example 38] , answer whether its pIC50 meets or surpasses 6.
(A) Condition met

----------
# Study System: Recombinant HCV polymerase (BK strain) (Hepatitis C virus genotype 1b)
# Construct: Recombinant HCV polymerase (BK strain) was expressed and purified from E. coli with a 21 amino acid C-terminal deletion; His6
# Assay Explanation: HCV polymerase enzyme assay (radiometric [33P]-UTP incorporation)
# Experimental: Compounds were tested for inhibition of HCV polymerase using a radiometric [^33P]-UTP incorporation assay and a biotinylated U13:PolyA primer:template RNA substrate. Recombinant HCV polymerase (BK strain) was expressed and purified from E. coli with a 21 amino acid C-terminal deletion and a His6-tag. […] The plates were then washed three times with phosphate-buffered saline containing 0.05% Tween20 in an automated plate washer to remove unincorporated [^33P]-UTP, and then counted in a […]
Assay Readout: pIC50
To interpret pIC50, take it as minus log10 of a concentration measured in moles per litre.

Below: 5 compounds and their reported pIC50.
| Compound | Assay Readout | Recorded Result |
| --- | --- | --- |
| CCOCCOc1ncc(F)cc1C(=O)NC1N=C(c2c(Cl)cc(Cl)cc2Cl)c2ccccc2NC1=O (stereo not drawn) | pIC50 | 7.04 |
| COCCOc1ccc(F)cc1C(=O)NC1N=C(c2c(Cl)cc(Cl)cc2CN2CCOCC2)c2ccccc2NC1=O (stereo not drawn) | pIC50 | 6.18 |
| COCC(C)Oc1ccc(Cl)cc1C(=O)NC1N=C(c2c(Cl)cc(Cl)cc2Cl)c2ccccc2NC1=O (stereo not drawn) | pIC50 | 6.58 |
| CCOCCN(CC)c1ncc(F)cc1C(=O)NC1N=C(c2c(Cl)cc(Cl)cc2Cl)c2ccccc2NC1=O (stereo not drawn) | pIC50 | 6.75 |
| CCOCCOc1ncc(F)cc1C(=O)NC1N=C(c2c(Cl)cc(Cl)cc2OCC)c2ccccc2NC1=O (stereo not drawn) | pIC50 | 7.16 |

(Q) Need pIC50 of O=C(NC1N=C(c2c(Cl)cc(Cl)cc2Cl)c2ccccc2NC1=O)c1cc(Cl)ccc1OCCOc1ccccc1 (stereo not drawn) , thanks.
(A) 6.06

(Q) Need pIC50 of CCCCOCCOc1ccc(Cl)cc1C(=O)NC1N=C(c2c(Cl)cc(Cl)cc2Cl)c2ccccc2NC1=O (stereo not drawn) , thanks.
(A) 6.12

(Q) Need pIC50 of COCCOc1ncc(F)cc1C(=O)NC1N=C(c2c(Cl)cc(Cl)cc2Cl)c2ccccc2NC1=O (stereo not drawn) , thanks.
(A) 6.93
